Assay: Acute toxicity in the rat, p.o.
Format: in vivo
Conditions: in vivo, po, 1000 mg/kg p.o., N=10, read-out: Animals which died in 14 days, %
Observed property: mortality at 336 h
Include the unit right after the number.

Problem: State, in one line, measured mortality at 336 h of N/C(=C1\C(=O)c2ccccc2[S+]1[O-])c1ccccc1 (stereo not shown) [Compound A]
Result: 0%

* * *

Test: Approximate acute toxicity in mice, p.o.
Assay type: in vivo
Conditions: in vivo; mouse, oral, 14 days
Observed property: LD50 at 336 h

Problem: State, in one line, measured LD50 at 336 h of N/C(=C1\C(=O)c2ccccc2[S+]1[O-])c1ccccc1 (stereo not shown)
Result: > 4000 mg/kg

* * *

Experiment: Acute toxicity in the rat, p.o.
Assay type: in vivo
Settings: in vivo, po, 2000 mg/kg p.o., N=10, read-out: Animals which died in 14 days, %
Observed property: mortality at 336 h (%)
I only need the number, in %, no unit after it.

Problem: State, in one line, measured mortality at 336 h of N/C(=C1\C(=O)c2ccccc2[S+]1[O-])c1ccccc1 (stereo not shown)
Result: 40

* * *

Assay: Acute toxicity in the rat, p.o.
Format: in vivo
Details: in vivo, oral, 14 days, read-out: LD50 (confidence limits, p≤0.05)
Observed property: LD50 at 336 h

Problem: State, in one line, measured LD50 at 336 h of N/C(=C1\C(=O)c2ccccc2[S+]1[O-])c1ccccc1 (stereo not shown)
Result: 2600 mg/kg
